Biological target: GST-GK derived from human liver GK (Homo sapiens, UniProt P35557)
Construct: made in house; host or cells: Escherichia coli DH5α
Assay: In vitro GK activity measurement test (G6PDH-coupled, OD340)
Format: biochemical
Settings: test compound 1 μmol/L; glucose 2.5 mmol/L; 25° C.; OD340 slope with compound / without compound; read-out: GK activation rate (%)
recorded_metric: activity at 1 µM (%)

The examples below pair each entry with its known result.
[[record]]
molecule = "COC(=O)N1CCC2(C1)CN(C(=O)Nc1ncc(SCCCNC(C)=O)s1)c1ccc(Cl)cc12 (stereo not drawn) [Example 177]"
recorded_metric = "activity at 1 µM"
observed_measurement = 530

[[record]]
molecule = "CNC(=O)CCCSc1cnc(NC(=O)N2CC3(CCN(C(=O)OC)C3)c3cc(Cl)ccc32)s1 (stereo not drawn) [Example 164]"
recorded_metric = "activity at 1 µM"
observed_measurement = 567

[[record]]
molecule = "COC(=O)NCCCSc1cnc(NC(=O)N2CC3(CCN(C(=O)OC)C3)c3cc(Cl)ccc32)s1 (stereo not drawn) [Example 455]"
recorded_metric = "activity at 1 µM"
observed_measurement = 606

[[record]]
molecule = "COC(=O)N1CCC2(C1)CN(C(=O)Nc1ncc(SCCC(=O)N3CCOCC3)s1)c1ccc(Cl)cc12 (stereo not drawn) [Example 154]"
recorded_metric = "activity at 1 µM"
observed_measurement = 473

[[record]]
molecule = "COc1ccc2nc(NC(=O)N3CC4(CCN(C(C)=O)C4)c4cc(S(=O)(=O)NCc5ccccc5F)ccc43)sc2n1 (stereo not drawn) [Example 269]"
recorded_metric = "activity at 1 µM"
observed_measurement = 640

[[record]]
molecule = "COC(=O)N1CC[C@@]2(C1)CN(C(=O)Nc1ncc(Cl)s1)c1ccc(Br)cc12 [Example 320]"
recorded_metric = "activity at 1 µM"
observed_measurement = 818

[[record]]
molecule = "CNC(=O)C(=O)N1CCC2(C1)CN(C(=O)Nc1ncc(Cl)s1)c1ccc(Cl)cc12 (stereo not drawn) [Example 46]"
recorded_metric = "activity at 1 µM"
observed_measurement = 499

[[record]]
molecule = "CCOC(=O)CCCc1ccc2c(c1)C1(CCN(C(=O)NC)C1)CN2C(=O)Nc1ncc(Cl)s1 (stereo not drawn) [Example 419]"
recorded_metric = "activity at 1 µM"
observed_measurement = 535


A. COC(=O)N1CC[C@@]2(C1)CN(C(=O)Nc1nc3ccc(OC)nc3s1)c1ccc(S(=O)(=O)N(CCO)Cc3ccccc3)cc12 [Example 345]
B. COc1cnc(NC(=O)N2CC3(CCN(C(C)=O)C3)c3cc(C(F)(F)F)ccc32)s1 (stereo not drawn) [Example 437]
**Q:** Of the two listed items, which has the higher activity at 1 µM? First: A Second: B Pick one; state its label.
**A:** A

P. CNC(=O)N1CCC2(C1)CN(C(=O)Nc1ncc(Cl)s1)c1ccc(CCCC(=O)N3CCC3)cc12 (stereo not drawn) [Example 424]
Q. CNC(=S)N1CCC2(C1)CN(C(=O)Nc1ncc(Cl)s1)c1ccc(Cl)cc12 (stereo not drawn) [Example 449]
**Q:** Of the two listed items, which has the higher activity at 1 µM? First: P Second: Q Pick one; state its label.
**A:** Q
(Q: 633%, P: 438%)

* * *

Target: GST-GK derived from human liver GK (Homo sapiens, UniProt P35557)
Construct: made in house; host or cells: Escherichia coli DH5α
Test: In vitro GK activity measurement test (G6PDH-coupled, OD340)
Type: biochemical
Conditions: test compound 1 μmol/L; glucose 2.5 mmol/L; 25° C.; OD340 slope with compound / without compound; read-out: GK activation rate (%)
recorded_metric: activity at 1 µM (%)

The examples below pair each entry with its known result.
[[record]]
compound = "COC(=O)N1CC[C@@]2(C1)CN(C(=O)Nc1ncc(Cl)s1)c1ccc(Cl)cc12"
recorded_metric = "activity at 1 µM"
observed_measurement = 886

[[record]]
compound = "O=C(NO)N1CCC2(C1)CN(C(=O)Nc1ncc(Cl)s1)c1ccc(Cl)cc12 (centres unmarked)"
recorded_metric = "activity at 1 µM"
observed_measurement = 602

[[record]]
compound = "COC(=O)N1CCC2(C1)CN(C(=O)Nc1ncc(SC(C)CO)s1)c1ccc(Cl)cc12 (centres unmarked)"
recorded_metric = "activity at 1 µM"
observed_measurement = 574

[[record]]
compound = "CCOC(=O)CSc1cnc(NC(=O)N2C[C@]3(CCN(C(=O)OC)C3)c3cc(Br)ccc32)s1"
recorded_metric = "activity at 1 µM"
observed_measurement = 705

[[record]]
compound = "O=C(NCCO)N1CCC2(C1)CN(C(=O)Nc1ncc(Cl)s1)c1ccc(Cl)cc12 (centres unmarked)"
recorded_metric = "activity at 1 µM"
observed_measurement = 537


1. COC(=O)N1CCC2(C1)CN(C(=O)Nc1ncc(Cl)s1)c1ccc(Br)cc12 (centres unmarked)
2. COc1cnc(NC(=O)N2CC3(CCN(C(=O)CO)C3)c3cc(C(F)(F)F)ccc32)s1 (centres unmarked)
**Q:** Of the two listed items, which has the higher activity at 1 µM? First: 1 Second: 2 Pick one; state its label.
**A:** 1
(1: 678%, 2: 416%)

* * *

Biological target: GST-GK derived from human liver GK (Homo sapiens, UniProt P35557)
Construct: made in house; host or cells: Escherichia coli DH5α
Sequence (P35557 1-466 isoform P35557-2): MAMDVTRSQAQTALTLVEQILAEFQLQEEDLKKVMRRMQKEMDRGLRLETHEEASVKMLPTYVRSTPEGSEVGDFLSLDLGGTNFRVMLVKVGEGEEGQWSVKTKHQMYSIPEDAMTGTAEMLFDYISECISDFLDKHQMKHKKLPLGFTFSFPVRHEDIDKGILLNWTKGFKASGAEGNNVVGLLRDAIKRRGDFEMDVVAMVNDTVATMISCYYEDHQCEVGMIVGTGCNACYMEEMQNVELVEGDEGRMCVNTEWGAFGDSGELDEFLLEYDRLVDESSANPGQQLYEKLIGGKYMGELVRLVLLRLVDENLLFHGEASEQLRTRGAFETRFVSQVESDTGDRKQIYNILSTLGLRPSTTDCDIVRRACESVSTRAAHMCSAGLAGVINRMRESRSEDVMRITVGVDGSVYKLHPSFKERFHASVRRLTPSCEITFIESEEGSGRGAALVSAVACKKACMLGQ
Assay: In vitro GK activity measurement test (G6PDH-coupled, OD340)
Assay type: biochemical
Details: test compound 1 μmol/L; glucose 2.5 mmol/L; 25° C.; OD340 slope with compound / without compound; read-out: GK activation rate (%)
recorded_metric: activity at 1 µM (%)

The examples below pair each entry with its known result.
[[record]]
compound = "COC(=O)N1CCC2(C1)CN(C(=O)Nc1nc3ccc(OC)nc3s1)c1ccc(S(=O)(=O)N(CCC(=O)O)Cc3ccccc3)cc12 (stereo not shown)"
units_symbol = "%"
observed_measurement = 887

[[record]]
compound = "COC(=O)N1CCC2(C1)CN(C(=O)Nc1ncc(SCCCN(C)C)s1)c1ccc(Cl)cc12 (stereo not shown)"
units_symbol = "%"
observed_measurement = 442

[[record]]
compound = "COc1ccc2nc(NC(=O)N3CC4(CCN(C(C)=O)C4)c4cc(S(=O)(=O)NCc5ccco5)ccc43)sc2n1 (stereo not shown)"
units_symbol = "%"
observed_measurement = 578

[[record]]
compound = "COC(=O)N1CCC2(C1)CN(C(=O)Nc1ncc(Oc3cccc(C(N)=O)c3)s1)c1ccc(Cl)cc12 (stereo not shown)"
units_symbol = "%"
observed_measurement = 583

[[record]]
compound = "CNC(=O)N1CC[C@@]2(C1)CN(C(=O)Nc1ncc(OC)s1)c1ccc(Cl)cc12"
units_symbol = "%"
observed_measurement = 636


I. COCCN(Cc1ccccc1)S(=O)(=O)c1ccc2c(c1)[C@@]1(CCN(C(=O)OC)C1)CN2C(=O)Nc1nc2ccc(OC)nc2s1
II. COC(=O)N1CCC2(C1)CN(C(=O)Nc1ncc(SCC(=O)N(C)C)s1)c1ccc(Cl)cc12 (stereo not shown)
**Q:** Field: lower activity at 1 µM | Options: I / II Pick one; state its label.
**A:** II

* * *

Target: GST-GK derived from human liver GK (Homo sapiens)
Construct: made in house; host or cells: Escherichia coli DH5α
Assay: In vitro GK activity measurement test (G6PDH-coupled, OD340)
Format: biochemical
Settings: test compound 1 μmol/L; glucose 2.5 mmol/L; 25° C.; OD340 slope with compound / without compound; read-out: GK activation rate (%)
recorded_metric: activity at 1 µM (%)

[[record]]
compound = "CCOC(=O)CCCNC(=O)N1CCC2(C1)CN(C(=O)Nc1ncc(Cl)s1)c1ccc(Cl)cc12 (stereo not drawn)"
recorded_metric = "activity at 1 µM"
observed_measurement = 405

[[record]]
compound = "NCC(=O)N1CCC2(C1)CN(C(=O)Nc1ncc(Cl)s1)c1ccc(Br)cc12 (stereo not drawn)"
recorded_metric = "activity at 1 µM"
observed_measurement = 429

[[record]]
compound = "COCCN(Cc1ccccc1)S(=O)(=O)c1ccc2c(c1)C1(CCN(C(C)=O)C1)CN2C(=O)Nc1nc2ccc(OC)nc2s1 (stereo not drawn)"
recorded_metric = "activity at 1 µM"
observed_measurement = 793


1. CNC(=O)N1CCC2(C1)CN(C(=O)Nc1ncc(Cl)s1)c1ccc(Cl)cc12 (stereo not drawn)
2. COc1ccc2nc(NC(=O)N3CC4(CCN(C(C)=O)C4)c4cc(S(=O)(=O)NCc5cccs5)ccc43)sc2n1 (stereo not drawn)
**Q:** Field: lower activity at 1 µM | Options: 1 / 2 Pick one; state its label.
**A:** 1
